These data points were gathered from PubChem BioAssay AID1347165.

- target-entity: Lysine-specific demethylase 5B (Homo sapiens)
- test-protocol: Primary screen for KDM5B Histone Demethylases FDH-coupled qHTS; further: nearly all actives have a fitted effect of over 70% in size
- condition-context: FDH-coupled NADH fluorescence; series mostly up to 57.7 µM
Out of some 220,000 compounds screened, about 5,700 (2.6%) were called active. Another 18% or so got no clear call; they are omitted. The call rests on the fitted dose curve; in most records, active means well fitted inhibition curve with a large enough effect; inconclusive means small, poorly fitted or top-dose-only effect; inactive means no such curve, though single readings can be large or run the other way. Many of the other results were omitted from the sample, so actives are more common in it than they were.
I would appreciate it if you answered using one of these outcomes: t (active), f (inactive)

In [3]: df
Out[3]:
                                   compound  assigned_category
0  Cc1nn2c(c1-c1ccccc1-c1ccccc1)N(CC1CC1)CCC2                  t
1  COc1cccc(-c2cc(C3CCN(C(=O)Nc4ccccc4Cl)CC3)[nH]n2)c1                  f
2  N#CC(C#N)=C(Nc1ccc(Oc2ccccc2)cc1)C(F)(F)C(F)(F)F                  f
3  CC1(c2cccnc2)N(CCOc2ccccc2)C(=O)OC12CCN(C(=O)c1cccc(Cl)c1)CC2 (configuration not stated)                  f
4  COc1ccc(-c2noc3ncnc(N4CCC(C(=O)NCCN5CCCCC5)CC4)c23)cc1                  f

QUERY: # outcome recorded in this test, key = CCOc1ccc(C(=O)Nc2ccc3oc(C)nc3c2)cc1OCC
RESULT: f

QUERY: Same lookup for Cc1cccc(N2C(=O)c3ccc(C(=O)Nc4cccc(C(=O)O)c4)cc3C2=O)c1 , please.
RESULT: f

QUERY: Same lookup for CCCCN(CCCC)c1cccc(-c2cccc(N(CCCC)CCCC)c2)c1 , please.
RESULT: f

QUERY: Same lookup for COc1cccc(OCCN(C)Cc2cn(-c3ccccc3)nn2)c1 , please.
RESULT: f

QUERY: Same lookup for CC1CCN(C(=O)C[C@@H]2c3nc(NC(=O)c4ccnc(Cl)c4)sc3C[C@@H]3[C@](C)(CO)[C@H](O)CC[C@]32C)CC1 , please.
RESULT: f

QUERY: Same lookup for O=C(NC12CC3CC(CC(C3)C1)C2)c1cccc2ncccc12 , please.
RESULT: f

====

- target-entity: Lysine-specific demethylase 5B (Homo sapiens)
- test-protocol: Primary screen for KDM5B Histone Demethylases FDH-coupled qHTS; further: nearly all actives have a fitted effect of over 70% in size
- condition-context: FDH-coupled NADH fluorescence (FDH is formaldehyde dehydrogenase); series mostly up to 57.7 µM
- Source text: Assay Submitter (PI): Qin Yan, Ph.D. (Yale University) and Xiaodong Cheng, Ph.D. (MD Anderson) This project was funded as part of the NCI NEXT Program and Chemical Biology Consortium (CBC) The histone demethylases, KDM5A and KDM5B catalyze the demethylation of lysine 4 on histone H3 (H3K4me3/2). They are overexpressed in a variety of cancers and have been implicated in cancer cell growth, metastasis, drug resistance, and tumor growth. […]
Hit rate of the full screen: of about 220,000 compounds, about 5,700 (2.6%) were called active. Roughly 18% stayed inconclusive and do not appear here. Calls come from the whole dose curve; as a rule, active = well fitted inhibition curve with a large enough effect; inconclusive = small, poorly fitted or top-dose-only effect; inactive = no such curve, though single readings can be large or run the other way. For the sample, actives were picked, then their nearest neighbours and some compounds at random.
I would appreciate it if you answered using one of these outcomes: active, inactive

// below: answered molecules
>>> print(df.to_string())
                                   molecule                             target_entity  assigned_category
0  COc1ccc(C(=O)N2CCc3nc(C(C)C)nc(-c4ccc(Cl)cc4)c3CC2)cc1  Lysine-specific demethylase 5B (Homo sapiens)           inactive
1  COc1ccc(CC(=O)NC2CCN(c3cc(-c4ccccc4)[nH]n3)CC2)cc1  Lysine-specific demethylase 5B (Homo sapiens)           inactive
2  CNC(=O)[C@@H]1CN(C(=O)c2n[nH]c3ccccc23)C[C@H]1COC  Lysine-specific demethylase 5B (Homo sapiens)           inactive
3  CC1(C)CC(=O)C2=C(C1)OC(N)=C(C#N)C2c1ccc(C(F)(F)F)cc1 (stereo not given)  Lysine-specific demethylase 5B (Homo sapiens)           inactive
4       COc1ncccc1Nc1ncc(-c2ccccc2)c2c1OCC2  Lysine-specific demethylase 5B (Homo sapiens)           inactive

QUERY: # outcome recorded in this test, key = CNC(=O)[C@@H]1CN(C(=O)Cc2cccnc2)C[C@H]1COC
RESULT: inactive

QUERY: Same lookup for CCOc1ccc(CC(=O)NC2CCN(c3cc(-c4ccc(F)cc4)[nH]n3)CC2)cc1OCC , please.
RESULT: inactive

QUERY: Same lookup for COc1cccc(CC(=O)NC2CCN(c3cc(-c4ccc(F)cc4)[nH]n3)C2)c1 (stereo not given) , please.
RESULT: active

QUERY: Same lookup for COC[C@@H]1CN(c2ncccn2)C[C@H]1C(=O)Nc1ccncc1 , please.
RESULT: active

QUERY: Same lookup for CN1CCN(Cc2ccc(Nc3ncc(-c4cccnc4)c4c3OCC4)cc2)CC1 , please.
RESULT: inactive
